Test system: bloodstream form T. brucei Lister 427
assay comment: ATP–bioluminescence-based bloodstream form T. brucei cell viability assay
condition details: Trypanosoma brucei, 48 h, read-out: Tb427 EC50
Reported log10 of EC50 by item:
property measured: log10 of EC50 (log10 of the value in µM)

{"columns": ["line notation", "system tested", "readout value"],
 "data": [
  ["C=CCOc1cc(Br)cc(Nc2cc(C)nc(N)n2)c1", "bloodstream form T. brucei Lister 427", 0.64],
  ["Cc1cc(NCc2cc(Cl)cc(Cl)c2)nc(N)n1", "bloodstream form T. brucei Lister 427", 1.04],
  ["Nc1nc(Cl)cc(Nc2cc(Cl)cc(Cl)c2)n1", "bloodstream form T. brucei Lister 427", 0.95],
  ["CC(C)c1cc(Nc2cc(Cl)cc(Cl)c2)nc(N)n1", "bloodstream form T. brucei Lister 427", 0.67],
  ["Nc1nc2c(c(Nc3cc(Cl)cc(Cl)c3)n1)CCC2", "bloodstream form T. brucei Lister 427", 1.28],
  ["Cc1cc(Nc2cc(Cl)cc(C#N)c2)nc(N)n1", "bloodstream form T. brucei Lister 427", 1.08],
  ["Nc1cccc(Nc2cc(Cl)cc(Cl)c2)n1", "bloodstream form T. brucei Lister 427", 1.98],
  ["Cc1cc(Nc2cc(Cl)c(N3CCCCC3)c(Cl)c2)nc(N)n1", "bloodstream form T. brucei Lister 427", 0.32],
  ["Cc1cc(Nc2cc(Cl)c(N(C)C)c(Cl)c2)nc(N)n1", "bloodstream form T. brucei Lister 427", 0.76]
]}

* * *

Target sequence: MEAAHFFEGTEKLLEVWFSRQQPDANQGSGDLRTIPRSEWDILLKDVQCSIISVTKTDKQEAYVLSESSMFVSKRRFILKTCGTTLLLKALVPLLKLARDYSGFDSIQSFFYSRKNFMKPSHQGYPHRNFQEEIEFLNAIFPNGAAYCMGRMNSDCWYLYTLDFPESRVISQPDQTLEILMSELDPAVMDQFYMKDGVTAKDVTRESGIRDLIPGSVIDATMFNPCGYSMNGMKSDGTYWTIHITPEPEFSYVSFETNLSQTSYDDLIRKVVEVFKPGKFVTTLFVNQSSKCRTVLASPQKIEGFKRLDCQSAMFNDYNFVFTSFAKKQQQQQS
property measured: IC50 (µM)

{"columns": ["line notation", "readout value"],
 "data": [
  ["Cc1cc(Nc2cc(Cl)c(F)c(Cl)c2)nc(N)n1", 160]
]}

* * *

Tested on: bloodstream form T. brucei Lister 427
assay comment: ATP–bioluminescence-based bloodstream form T. brucei cell viability assay
condition details: Trypanosoma brucei, 48 h, read-out: Tb427 EC50
pEC50: −log10 of the molar value.
Entries and their pEC50 values follow.

{"columns": ["line notation", "operator symbol", "pEC50"],
 "data": [
  ["Cc1cc(Nc2cc(Cl)cc(-c3ccoc3)c2)nc(N)n1", "=", 5.15],
  ["Cc1cc(Sc2cc(Cl)cc(Cl)c2)nc(N)n1", "<", 4.60],
  ["CSc1cccc(Nc2cc(C)nc(N)n2)c1", "<", 4.60],
  ["Cc1cc(Nc2cc(S(C)(=O)=O)cc(S(C)(=O)=O)c2)nc(N)n1", "<", 4.00],
  ["Cc1cc(Nc2cc(C(=O)O)cc(C(=O)O)c2)nc(N)n1", "<", 4.00],
  ["Cc1cc(Nc2cc(Cl)c(F)c(Cl)c2)nc(N)n1", "=", 5.32],
  ["Cc1cc(Nc2cc(Br)cc(OCC(F)(F)F)c2)nc(N)n1", "=", 5.38],
  ["COc1ccc(-c2cc(Cl)cc(Nc3cc(C)nc(N)n3)c2)cc1", "=", 5.35],
  ["CSc1ccccc1Nc1cc(C)nc(N)n1", "<", 4.60],
  ["Cc1cc(Nc2cc(Cl)cc(-c3ccc(F)cc3)c2)nc(N)n1", "=", 5.80]
]}
